Recorded measurements of Ratio IC50, one per entry
target under test: Serotonin and norepinephrine transporters (SERT/NET) (Homo sapiens) (UniProt P31645+P23975)
Sequence (P23975 whole entry, looked up): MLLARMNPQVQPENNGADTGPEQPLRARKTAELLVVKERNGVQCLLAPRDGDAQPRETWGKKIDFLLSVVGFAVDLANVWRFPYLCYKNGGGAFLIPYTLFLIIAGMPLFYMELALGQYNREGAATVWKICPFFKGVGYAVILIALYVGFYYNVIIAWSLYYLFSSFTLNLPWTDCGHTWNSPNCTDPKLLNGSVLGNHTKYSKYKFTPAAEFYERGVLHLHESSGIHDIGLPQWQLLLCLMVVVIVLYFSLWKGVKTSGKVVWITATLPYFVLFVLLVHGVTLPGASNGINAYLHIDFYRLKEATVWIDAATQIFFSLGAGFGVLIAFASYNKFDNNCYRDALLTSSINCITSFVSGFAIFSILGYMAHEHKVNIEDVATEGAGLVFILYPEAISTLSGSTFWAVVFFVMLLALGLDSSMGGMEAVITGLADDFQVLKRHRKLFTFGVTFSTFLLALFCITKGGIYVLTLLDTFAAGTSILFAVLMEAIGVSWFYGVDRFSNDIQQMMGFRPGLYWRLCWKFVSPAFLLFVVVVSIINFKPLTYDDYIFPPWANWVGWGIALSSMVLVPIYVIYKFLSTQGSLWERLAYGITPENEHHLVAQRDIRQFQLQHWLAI
Sequence (P31645 whole entry, looked up): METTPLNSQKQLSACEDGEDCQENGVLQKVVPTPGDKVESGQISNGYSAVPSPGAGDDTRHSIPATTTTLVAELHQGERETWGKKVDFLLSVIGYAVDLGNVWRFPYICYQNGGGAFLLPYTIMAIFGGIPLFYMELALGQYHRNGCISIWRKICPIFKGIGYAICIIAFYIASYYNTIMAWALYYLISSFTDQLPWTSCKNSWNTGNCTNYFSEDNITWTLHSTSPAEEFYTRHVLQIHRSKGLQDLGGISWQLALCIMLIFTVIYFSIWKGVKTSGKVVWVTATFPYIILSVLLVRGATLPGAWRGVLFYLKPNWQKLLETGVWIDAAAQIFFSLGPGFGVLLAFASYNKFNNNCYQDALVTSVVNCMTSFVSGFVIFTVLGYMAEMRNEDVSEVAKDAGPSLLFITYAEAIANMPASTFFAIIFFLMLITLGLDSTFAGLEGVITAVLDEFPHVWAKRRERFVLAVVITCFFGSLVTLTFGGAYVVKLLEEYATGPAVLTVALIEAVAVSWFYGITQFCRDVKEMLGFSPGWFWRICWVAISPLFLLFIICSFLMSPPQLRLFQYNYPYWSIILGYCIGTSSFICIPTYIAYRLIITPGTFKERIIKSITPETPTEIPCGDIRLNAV
experiment description: Selectivity for human SERT over human NET
Format: protein assay
Write no unit; give the number alone.

In: // returns reported Ratio IC50 for input C[N+]1(CCl)C2C=C(c3ccccc3-c3ccccc3)CC1CC2 (stereo unspecified)
Out: 8

In: Repeat for the following compound: CN1C2CCC1CC(O)(C1c3ccccc3-c3ccc(Br)cc31)C2 (stereo unspecified)
Out: 0.041

In: Do the same for CN1C2CCC1CC(O)(c1ccccc1-c1ccccc1)C2 (stereo unspecified) please
Out: 0.038

In: Then this compound: CN1C2C=C(C3c4ccccc4-c4ccccc43)CC1CC2 (stereo unspecified)
Out: 0.0083

In: Query CN1C2C=C(c3c[nH]c4ccccc34)CC1CC2 (stereo unspecified) next
Out: 0.018

In: Another compound to check: CN1C2CCC1CC(O)(c1cccc(-c3ccccc3)c1)C2 (stereo unspecified)
Out: 0.091

* * *

Quick record of IC50 values for Sodium-dependent noradrenaline transporter (Homo sapiens).

Solved entries (count: 5):
In [3]: df
Out[3]:
                                   compound  experimental_result
0  CN1C2C=C(c3c[nH]c4ccccc34)CC1CC2 (stereo unspecified)              3.96 µM
1  CN1C2C=C(c3cccc(-c4ccccc4)c3)CC1CC2 (stereo unspecified)                23 µM
2  CN1C2C=C(c3ccccc3-c3ccccc3)CC1CC2 (stereo unspecified)              6.43 µM
3  CN1C2CCC1CC(O)(C1c3ccccc3-c3ccccc31)C2 (stereo unspecified)               158 µM
4  CN1C2CCC1CC(O)(C1c3ccccc3-c3ccc(Br)cc31)C2 (stereo unspecified)              62.6 µM

From here, focus on the item given below.
In: Requested read-out: IC50. Entry: CN1C2C=C(C3c4ccccc4-c4ccccc43)CC1CC2 (stereo unspecified)
Out: 82.7 µM

* * *

Parameter pIC50: see the listing below.
target under test: Sodium-dependent noradrenaline transporter (Homo sapiens)
// pIC50: -log10(molar conc.)

Previously resolved entries follow.
>>> df
                                   compound                         target_under_test  experimental_result
0  C[N+]1(CCl)C2C=C(c3ccccc3-c3ccccc3)CC1CC2 (centres undefined)  Sodium-dependent noradrenaline transporter (Homo sapiens)                 5.69
1  CN1C2CCC1CC(O)(c1ccccc1-c1ccccc1)C2 (centres undefined)  Sodium-dependent noradrenaline transporter (Homo sapiens)                 4.18

In: Sample CN1C2CCC1CC(O)(c1cccc(-c3ccccc3)c1)C2 (centres undefined) — what was its pIC50?
Out: 4.38

In: Try the compound CN1C2C=C(c3ccc4c(c3)Cc3ccccc3-4)CC1CC2 (centres undefined)
Out: 5.47

* * *

target under test: Sodium-dependent dopamine transporter (Homo sapiens)
Sequence (Q01959 whole entry): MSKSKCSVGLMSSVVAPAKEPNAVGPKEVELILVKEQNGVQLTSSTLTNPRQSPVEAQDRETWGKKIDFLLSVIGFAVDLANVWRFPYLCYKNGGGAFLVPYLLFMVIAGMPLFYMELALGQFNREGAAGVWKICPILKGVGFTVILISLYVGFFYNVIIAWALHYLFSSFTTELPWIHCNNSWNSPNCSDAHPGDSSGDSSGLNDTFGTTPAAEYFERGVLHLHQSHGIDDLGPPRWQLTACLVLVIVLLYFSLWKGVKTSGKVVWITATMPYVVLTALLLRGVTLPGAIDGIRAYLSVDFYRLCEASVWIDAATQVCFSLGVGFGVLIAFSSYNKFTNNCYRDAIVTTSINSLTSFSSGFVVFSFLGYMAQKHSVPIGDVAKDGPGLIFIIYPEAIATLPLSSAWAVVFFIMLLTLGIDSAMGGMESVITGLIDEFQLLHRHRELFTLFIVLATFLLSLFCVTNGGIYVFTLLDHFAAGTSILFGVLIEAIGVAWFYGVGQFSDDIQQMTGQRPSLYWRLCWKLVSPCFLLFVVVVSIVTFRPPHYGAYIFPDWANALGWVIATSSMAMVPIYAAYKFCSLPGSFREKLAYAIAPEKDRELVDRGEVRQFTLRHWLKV
pIC50: −log10 of the molar value.
Mark FALSE for pIC50 values under 5, and TRUE for everything at or above.

Example entries and their recorded answers appear below.
>>> df
                                   compound                         target_under_test  classification
0  CN1C2C=C(c3ccc4c(c3)Cc3ccccc3-4)CC1CC2 (centres undefined)  Sodium-dependent dopamine transporter (Homo sapiens)            TRUE
1  CN1C2CCC1CC(O)(C1c3ccccc3-c3ccc(Br)cc31)C2 (centres undefined)  Sodium-dependent dopamine transporter (Homo sapiens)           FALSE
2  CN1C2CCC1CC(O)(C1c3ccccc3-c3ccccc31)C2 (centres undefined)  Sodium-dependent dopamine transporter (Homo sapiens)            TRUE
3  CN1C2CCC1CC(O)(c1ccccc1-c1ccccc1)C2 (centres undefined)  Sodium-dependent dopamine transporter (Homo sapiens)            TRUE
4  CN1C2C=C(c3c[nH]c4ccccc34)CC1CC2 (centres undefined)  Sodium-dependent dopamine transporter (Homo sapiens)            TRUE
5  C[N+]1(CCl)C2C=C(c3ccccc3-c3ccccc3)CC1CC2 (centres undefined)  Sodium-dependent dopamine transporter (Homo sapiens)           FALSE

Now take the following compound into account.
In: Reported pIC50 reaches at least 5 for CN1C2CCC1CC(O)(c1cccc(-c3ccccc3)c1)C2 (centres undefined) ?
Out: FALSE

Reference source for all entries: ChEMBL document CHEMBL1141860
